This collection of values is drawn from the supplement of paper PMC6555819.

Kindly state PBM binding z-score for each of the entries shown.
Tested on: PPARg:RXRa 270nM:90nM, anti-RXR (NR concentration 270 nM, RXRa partner concentration 90 nM)
Experiment: PBM binding z-score (relative to random genomic background probes); higher = stronger binding; sequences stand for … in GC…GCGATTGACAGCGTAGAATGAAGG
// return a plain number; no unit text

Task item: Field request: PBM binding z-score | item: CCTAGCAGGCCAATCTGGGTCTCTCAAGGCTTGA
Reply: -0.468

Task item: Field request: PBM binding z-score | item: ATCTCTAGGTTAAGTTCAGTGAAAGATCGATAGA
Reply: 2.34

Task item: Field request: PBM binding z-score | item: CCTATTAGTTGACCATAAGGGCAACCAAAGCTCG
Reply: 0.461

Task item: Field request: PBM binding z-score | item: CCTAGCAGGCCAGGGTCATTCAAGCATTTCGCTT
Reply: 1.82

Task item: Field request: PBM binding z-score | item: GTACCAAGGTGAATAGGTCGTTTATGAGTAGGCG
Reply: 1.79

Task item: Field request: PBM binding z-score | item: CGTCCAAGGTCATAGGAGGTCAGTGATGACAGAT
Reply: 5.82

Task item: Field request: PBM binding z-score | item: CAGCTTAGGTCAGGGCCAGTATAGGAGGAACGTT
Reply: 0.732

Task item: Field request: PBM binding z-score | item: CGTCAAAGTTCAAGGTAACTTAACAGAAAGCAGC
Reply: 4.97

Task item: Field request: PBM binding z-score | item: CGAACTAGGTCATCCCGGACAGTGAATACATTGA
Reply: 6.47

Task item: Field request: PBM binding z-score | item: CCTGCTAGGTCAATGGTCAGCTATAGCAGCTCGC
Reply: 4.91

Task item: Field request: PBM binding z-score | item: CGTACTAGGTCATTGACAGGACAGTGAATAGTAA
Reply: 5.47

Task item: Field request: PBM binding z-score | item: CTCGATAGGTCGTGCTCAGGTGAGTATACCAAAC
Reply: 0.394

Task item: Field request: PBM binding z-score | item: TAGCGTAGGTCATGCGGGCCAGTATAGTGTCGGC
Reply: 2.43

Task item: Field request: PBM binding z-score | item: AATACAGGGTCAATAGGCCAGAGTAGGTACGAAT
Reply: 5.46

Task item: Field request: PBM binding z-score | item: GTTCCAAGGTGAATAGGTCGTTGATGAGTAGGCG
Reply: 1.94

Task item: Field request: PBM binding z-score | item: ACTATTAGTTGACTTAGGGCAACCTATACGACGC
Reply: 0.258

Task item: Field request: PBM binding z-score | item: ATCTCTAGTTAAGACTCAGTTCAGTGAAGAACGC
Reply: 0.419

Task item: Field request: PBM binding z-score | item: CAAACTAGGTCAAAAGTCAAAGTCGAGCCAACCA
Reply: 9.92

Task item: Field request: PBM binding z-score | item: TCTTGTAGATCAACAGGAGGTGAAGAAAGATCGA
Reply: 1.4

Task item: Field request: PBM binding z-score | item: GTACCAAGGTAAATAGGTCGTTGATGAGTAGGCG
Reply: 1.34

Task item: Field request: PBM binding z-score | item: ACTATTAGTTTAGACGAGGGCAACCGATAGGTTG
Reply: 0.246

Task item: Field request: PBM binding z-score | item: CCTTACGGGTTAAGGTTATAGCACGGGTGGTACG
Reply: 1.61

Task item: Field request: PBM binding z-score | item: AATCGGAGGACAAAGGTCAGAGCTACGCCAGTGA
Reply: 7.23

Task item: Field request: PBM binding z-score | item: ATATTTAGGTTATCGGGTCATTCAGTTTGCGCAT
Reply: 5.51

Task item: Field request: PBM binding z-score | item: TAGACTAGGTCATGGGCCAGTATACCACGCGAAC
Reply: 6.34

Task item: Field request: PBM binding z-score | item: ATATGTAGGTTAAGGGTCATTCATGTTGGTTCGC
Reply: 9.59
